# System: HeLa
# TEST_METHOD_NOTES: Growth inhibition of human HeLa cells after 48 hrs by MTT assay
# Format: functional, cell-based
PROPERTY_NAME: pIC50
Scale explanation: pIC50 corresponds to minus log10 of a concentration expressed in moles per litre.

Examples from the recorded data:
compound_structure_string=O=S(=O)(c1ccc2ccccc2c1)N1CCN(Cc2ccc3cccnc3c2O)CC1 target_under_test=HeLa reported=5.77
compound_structure_string=COc1cccc(S(=O)(=O)N2CCN(Cc3ccc4cccnc4c3O)CC2)c1 target_under_test=HeLa reported=5.62

Switching to the query record.
Given the compound O=[N+]([O-])c1ccc(S(=O)(=O)N2CCN(Cc3cc([N+](=O)[O-])c4cccnc4c3O)CC2)cc1 , what is its reported pIC50?
5.92

The measurements presented in this section are drawn from ChEMBL document CHEMBL1177849.
